measuredMetric: melting point

1. CC1COCc2nc3c(N)nc4ccc(OCc5cscn5)cc4c3n21 (centres undefined) = 240 to 242 °C
2. CN1CCN(C2=Nc3ccccc3Oc3sc(Br)cc32)CC1 = 150 to 151 °C
3. CCc1nc(N)nc(N)c1CCCc1cccc(-c2ccccc2)c1 = 128 to 133 °C
4. COc1ccc(C2=NN(Cc3ccncc3)C(=O)[C@H]3CC=CC[C@@H]23)cc1OC (relative stereo) = 121 to 124 °C
5. N#Cc1cc(NC(=O)c2ccn(-c3ccc(F)cc3)c2)ccc1N1CCCCC1 = 195 to 196 °C
6. C#Cc1cnn2c(C3CC3)cc(-c3ccc(Cl)c(Cl)c3)nc12 = 194 to 196 °C
7. CC(=O)Nc1nc(Cl)c2ncn(COC(COC(C)C)COC(C)C)c2n1 = 106 °C
8. CCNc1nc(=S)n(CC)c2nc(C3CC3)[nH]c12 = 265 °C
9. O=c1cc(-c2cc(OCc3ccccc3)cc(OCc3ccccc3)c2)oc2cc(OCC3CO3)ccc12 (centres undefined) = 172 to 173 °C
